Where do the numbers come from? From ChEMBL document CHEMBL5303573.

Method: The drug is tested on Bacteroides dorei strain: DSM17855 for biotransformation. The drug concentrations were measured before and after a 12-h incubation by liquid-chromatography-coupled mass spectrometry (LC–MS)
Measurement Setup: phocaeicola dorei, 2 µM

Molecule: OC(CCN1CCCCC1)(c1ccccc1)C1CCCCC1 (centres undefined)
Bacterial Biotransformation: Compound metabolized

Molecule: CCOc1ccc(NC(C)=O)cc1
Bacterial Biotransformation: Compound NOT metabolized

Molecule: N#Cc1ccc2[nH]cc(CCCCN3CCN(c4ccc5oc(C(N)=O)cc5c4)CC3)c2c1
Bacterial Biotransformation: Compound metabolized

Molecule: COC(=O)[C@H](c1ccccc1Cl)N1CCc2sccc2C1.O=S(=O)(O)O [CLOPIDOGREL BISULFATE]
Bacterial Biotransformation: Compound metabolized

Molecule: COC(=O)[C@H]1[C@H]2C[C@@H]3c4[nH]c5cc(OC)ccc5c4CCN3C[C@H]2C[C@@H](OC(=O)c2cc(OC)c(OC)c(OC)c2)[C@@H]1OC
Bacterial Biotransformation: Compound NOT metabolized

Molecule: CN(C)CCOC(c1ccc(Cl)cc1)c1ccccn1.O=C(O)/C=C\C(=O)O (centres undefined) [CARBINOXAMINE MALEATE]
Bacterial Biotransformation: Compound NOT metabolized

Molecule: CCCC1O[C@@H]2C[C@H]3[C@@H]4CCC5=CC(=O)C=C[C@]5(C)[C@H]4[C@@H](O)C[C@]3(C)[C@]2(C(=O)CO)O1 (some centres undefined) [BUDESONIDE]
Bacterial Biotransformation: Compound metabolized

Molecule: C#C[C@]1(O)CC[C@H]2[C@@H]3CCC4=CC(=O)CC[C@@H]4[C@H]3CC[C@@]21CC
Bacterial Biotransformation: Compound metabolized

Molecule: N#Cc1ccc(C(c2ccc(C#N)cc2)n2cncn2)cc1
Bacterial Biotransformation: Compound NOT metabolized

###

Method: The drug is tested on Ruminococcus gnavus strain: ATCC29149 for biotransformation. The drug concentrations were measured before and after a 12-h incubation by liquid-chromatography-coupled mass spectrometry (LC–MS)
Measurement Setup: mediterraneibacter gnavus, 2 µM

Compound: CCOC(=O)[C@H](CCc1ccccc1)N[C@H]1CCc2ccccc2N(CC(=O)O)C1=O
Bacterial Biotransformation: Compound NOT metabolized
//
Compound: CN(C)CCOC(c1ccc(Cl)cc1)c1ccccn1.O=C(O)/C=C\C(=O)O (stereo not given) [CARBINOXAMINE MALEATE]
Bacterial Biotransformation: Compound NOT metabolized
//
Compound: COc1ccc2[nH]c([S+]([O-])Cc3ncc(C)c(OC)c3C)nc2c1 (stereo not given)
Bacterial Biotransformation: Compound metabolized
//
Compound: CS(=O)(=O)O.OC(CCN1CCCCC1)(c1ccccc1)c1ccccc1 [PRIDINOL METHANESULFONATE]
Bacterial Biotransformation: Compound NOT metabolized
//
Compound: COc1ccc(/C=C/C(=O)Nc2ccccc2C(=O)O)cc1OC
Bacterial Biotransformation: Compound NOT metabolized
//
Compound: CCN(C)C(=O)Oc1cccc([C@H](C)N(C)C)c1.O=C(O)C(O)C(O)C(=O)O [RIVASTIGMINE TARTRATE]
Bacterial Biotransformation: Compound NOT metabolized
//
Compound: CC(=O)Oc1ccc(C(c2ccc(OC(C)=O)cc2)c2ccccn2)cc1
Bacterial Biotransformation: Compound metabolized
//
Compound: CCCCc1nc(Cl)c(CO)n1Cc1ccc(-c2ccccc2-c2nn[nH]n2)cc1
Bacterial Biotransformation: Compound NOT metabolized
//
Compound: C[C@@H]1C[C@H]2[C@@H]3CCC4=CC(=O)C=C[C@]4(C)[C@@]3(F)[C@@H](O)C[C@]2(C)[C@@]1(O)C(=O)CO
Bacterial Biotransformation: Compound NOT metabolized
//
Compound: O=C(CCCN1CCC(O)(c2ccc(Cl)cc2)CC1)c1ccc(F)cc1
Bacterial Biotransformation: Compound NOT metabolized
//
Compound: OC(CCN1CCCCC1)(c1ccccc1)C1CCCCC1 (stereo not given)
Bacterial Biotransformation: Compound NOT metabolized
//
Compound: CC(C(=O)O)c1ccc2c(c1)Cc1cccnc1O2 (stereo not given)
Bacterial Biotransformation: Compound NOT metabolized
//
Compound: O=c1[nH]c2ccccc2n1C1CCN(CCCC(c2ccc(F)cc2)c2ccc(F)cc2)CC1 [PIMOZIDE]
Bacterial Biotransformation: Compound NOT metabolized
//
Compound: COc1c(C)c2c(c(O)c1C/C=C(\C)CCC(=O)OCCN1CCOCC1)C(=O)OC2 [MYCOPHENOLATE MOFETIL]
Bacterial Biotransformation: Compound metabolized
//
Compound: CCN(CC)C(=O)C1(c2ccccc2)CC1CN (stereo not given)
Bacterial Biotransformation: Compound NOT metabolized
//
Compound: CN(C)CCC=C1c2ccccc2C=Cc2ccccc21
Bacterial Biotransformation: Compound NOT metabolized
//
Compound: CC(=O)CCCCn1c(=O)c2c(ncn2C)n(C)c1=O
Bacterial Biotransformation: Compound NOT metabolized
//
Compound: COc1cc2nc(N(C)CCCNC(=O)C3CCCO3)nc(N)c2cc1OC (stereo not given)
Bacterial Biotransformation: Compound NOT metabolized
//
Compound: CC1=C(CC(=O)O)c2cc(F)ccc2/C1=C\c1ccc([S+](C)[O-])cc1 (stereo not given)
Bacterial Biotransformation: Compound NOT metabolized
//
Compound: CC(C)(C)N.CCC[C@H](N[C@@H](C)C(=O)N1[C@H](C(=O)O)C[C@@H]2CCCC[C@@H]21)C(=O)OCC
Bacterial Biotransformation: Compound NOT metabolized

###

Method: The drug is tested on Bacteroides cellulosilyticus strain: DSM14838 for biotransformation. The drug concentrations were measured before and after a 12-h incubation by liquid-chromatography-coupled mass spectrometry (LC–MS)
Measurement Setup: 2 µM

Compound: CCN1CCCC1CNC(=O)c1cc(S(=O)(=O)CC)c(N)cc1OC (centres undefined) [AMISULPRIDE]
Bacterial Biotransformation: Compound NOT metabolized

Compound: COc1cc(C(=O)NCc2ccc(OCCN(C)C)cc2)cc(OC)c1OC [TRIMETHOBENZAMIDE]
Bacterial Biotransformation: Compound NOT metabolized

Compound: Cc1ccnc2c1NC(=O)c1cccnc1N2C1CC1
Bacterial Biotransformation: Compound NOT metabolized

Compound: CC(=O)Nc1ccc(OC(C)=O)cc1 [DIACETAMATE]
Bacterial Biotransformation: Compound metabolized

Compound: CCOC(=O)C1=C(C)NC(C)=C(C(=O)OC)C1c1cccc([N+](=O)[O-])c1 (centres undefined)
Bacterial Biotransformation: Compound metabolized

Compound: CC(C)(C)NC[C@H](O)COc1nsnc1N1CCOCC1.O=C(O)/C=C\C(=O)O [TIMOLOL MALEATE]
Bacterial Biotransformation: Compound NOT metabolized

Compound: CCN(CC)CC#CCOC(=O)C(O)(c1ccccc1)C1CCCCC1.Cl (centres undefined) [OXYBUTYNIN CHLORIDE]
Bacterial Biotransformation: Compound NOT metabolized

Compound: CC(=O)O[C@]1(C(C)=O)CC[C@H]2[C@@H]3C=C(C)C4=CC(=O)CC[C@]4(C)[C@H]3CC[C@@]21C [MEGESTROL ACETATE]
Bacterial Biotransformation: Compound NOT metabolized

Compound: CC(C)NCC(O)c1ccc(NS(C)(=O)=O)cc1 (centres undefined)
Bacterial Biotransformation: Compound NOT metabolized

###

Method: The drug is tested on Bifidobacterium ruminantium strain: fecal isolate for biotransformation. The drug concentrations were measured before and after a 12-h incubation by liquid-chromatography-coupled mass spectrometry (LC–MS)
Measurement Setup: 2 µM
Non-standard residues stand in square brackets, D forms with d. Residues, ends and D or L forms follow the SMILES beside them. pGlu = O=C1CC[C@@H](C(=O)O)N1; Thz = O=C(O)[C@@H]1CSCN1

Compound: O=C(O[C@H]1C[C@H]2CC[C@@H](C1)[N+]21CCCC1)C(O)(c1ccccc1)c1ccccc1.[Cl-] [TROSPIUM CHLORIDE]
Bacterial Biotransformation: Compound NOT metabolized
//
Compound: O=C(O)c1cc(/N=N/c2ccc(S(=O)(=O)Nc3ccccn3)cc2)ccc1O [SULFASALAZINE]
Bacterial Biotransformation: Compound metabolized
//
Compound: O=C([O-])C[C@H](O)C[C@H](O)/C=C/c1c(C2CC2)nc2ccccc2c1-c1ccc(F)cc1.O=C([O-])C[C@H](O)C[C@H](O)/C=C/c1c(C2CC2)nc2ccccc2c1-c1ccc(F)cc1.[Ca+2] [PITAVASTATIN CALCIUM]
Bacterial Biotransformation: Compound NOT metabolized
//
Compound: C=CC[C@@H]1/C=C(\C)C[C@H](C)C[C@H](OC)[C@H]2O[C@@](O)(C(=O)C(=O)N3CCCC[C@H]3C(=O)O[C@H](/C(C)=C/[C@@H]3CC[C@@H](O)[C@H](OC)C3)[C@H](C)[C@@H](O)CC1=O)[C@H](C)C[C@@H]2OC.O [TACROLIMUS]
Bacterial Biotransformation: Compound NOT metabolized
//
Compound: c1ccc2[nH]c(-c3cscn3)nc2c1 [THIABENDAZOLE]
Bacterial Biotransformation: Compound NOT metabolized
//
Compound: Nc1nnc(-c2cccc(Cl)c2Cl)c(N)n1 [LAMOTRIGINE]
Bacterial Biotransformation: Compound NOT metabolized
//
Compound: CCOc1cc(CC(=O)N[C@@H](CC(C)C)c2ccccc2N2CCCCC2)ccc1C(=O)O [REPAGLINIDE]
Bacterial Biotransformation: Compound NOT metabolized
//
Compound: CC(C)(C)N.CCC[C@H](N[C@@H](C)C(=O)N1[C@H](C(=O)O)C[C@@H]2CCCC[C@@H]21)C(=O)OCC [PERINDOPRIL ERBUMINE]
Bacterial Biotransformation: Compound NOT metabolized
//
Compound: CN1C(=O)CCS(=O)(=O)C1c1ccc(Cl)cc1 (stereo unspecified) [CHLORMEZANONE]
Bacterial Biotransformation: Compound metabolized
//
Compound: O=C1C(CC[S+]([O-])c2ccccc2)C(=O)N(c2ccccc2)N1c1ccccc1 (stereo unspecified) [SULFINPYRAZONE]
Bacterial Biotransformation: Compound NOT metabolized
//
Compound: C#C[C@]1(O)CC[C@H]2[C@@H]3CCC4=CC(=O)CC[C@@H]4[C@H]3CC[C@@]21CC [LEVONORGESTREL]
Bacterial Biotransformation: Compound NOT metabolized
//
Compound: CC(=O)OCC(=O)[C@@]12N=C(C)O[C@@H]1C[C@H]1[C@@H]3CCC4=CC(=O)C=C[C@]4(C)[C@H]3[C@@H](O)C[C@@]12C [DEFLAZACORT]
Bacterial Biotransformation: Compound metabolized
//
Compound: CN1CC(=O)N2[C@H](c3ccc4c(c3)OCO4)c3[nH]c4ccccc4c3C[C@@H]2C1=O
Bacterial Biotransformation: Compound NOT metabolized
//
Compound: CCN(C)C(=O)Oc1cccc([C@H](C)N(C)C)c1.O=C(O)C(O)C(O)C(=O)O [RIVASTIGMINE TARTRATE]
Bacterial Biotransformation: Compound NOT metabolized
//
Compound: O=C1CC[C@@H](C(=O)N2CSC[C@H]2C(=O)O)N1 [PIDOTIMOD] ([pGlu]-[Thz]-OH)
Bacterial Biotransformation: Compound NOT metabolized
//
Compound: CN/C(=N/CCSCc1nc[nH]c1C)NC#N [CIMETIDINE]
Bacterial Biotransformation: Compound NOT metabolized
//
Compound: CCOC(=O)C1=C(C)NC(C)=C(C(=O)OC)C1c1cccc([N+](=O)[O-])c1 (stereo unspecified) [NITRENDIPINE]
Bacterial Biotransformation: Compound metabolized
//
Compound: Cc1cc(C)cc(OCC2CNC(=O)O2)c1 (stereo unspecified) [METAXALONE]
Bacterial Biotransformation: Compound NOT metabolized
//
Compound: N=C(N)NC(=O)Cc1c(Cl)cccc1Cl [GUANFACINE]
Bacterial Biotransformation: Compound NOT metabolized
//
Compound: CCOC(=O)[C@H](CCc1ccccc1)N[C@@H](C)C(=O)N1[C@H](C(=O)O)C[C@@H]2CCC[C@@H]21
Bacterial Biotransformation: Compound NOT metabolized
//
Compound: NC12CC3CC(CC(C3)C1)C2 [AMANTADINE]
Bacterial Biotransformation: Compound metabolized
//
Compound: CC[C@H](C)C(=O)O[C@H]1C[C@@H](C)C=C2C=C[C@H](C)[C@H](CC[C@@H]3C[C@@H](O)CC(=O)O3)[C@H]21 [LOVASTATIN]
Bacterial Biotransformation: Compound NOT metabolized
//
Compound: CCN(CC)CCOCCOC(=O)C1(c2ccccc2)CCCC1.O=C(O)CC(O)(CC(=O)O)C(=O)O [CARBETAPENTANE CITRATE]
Bacterial Biotransformation: Compound metabolized
//
Compound: COc1ccc2c(c1OC)C(=O)O[C@@H]2[C@H]1c2c(cc3c(c2OC)OCO3)CCN1C [NOSCAPINE]
Bacterial Biotransformation: Compound metabolized
//
Compound: CN1CCc2cccc3c2[C@H]1Cc1ccc(O)c(O)c1-3 [APOMORPHINE]
Bacterial Biotransformation: Compound NOT metabolized
//
Compound: CCCC(C)(COC(N)=O)COC(=O)NC(C)C (stereo unspecified) [CARISOPRODOL]
Bacterial Biotransformation: Compound NOT metabolized
